- Target Or Test System: Peroxisome proliferator-activated receptor gamma (Homo sapiens, UniProt P37231)
- Sequence (P37231 whole entry): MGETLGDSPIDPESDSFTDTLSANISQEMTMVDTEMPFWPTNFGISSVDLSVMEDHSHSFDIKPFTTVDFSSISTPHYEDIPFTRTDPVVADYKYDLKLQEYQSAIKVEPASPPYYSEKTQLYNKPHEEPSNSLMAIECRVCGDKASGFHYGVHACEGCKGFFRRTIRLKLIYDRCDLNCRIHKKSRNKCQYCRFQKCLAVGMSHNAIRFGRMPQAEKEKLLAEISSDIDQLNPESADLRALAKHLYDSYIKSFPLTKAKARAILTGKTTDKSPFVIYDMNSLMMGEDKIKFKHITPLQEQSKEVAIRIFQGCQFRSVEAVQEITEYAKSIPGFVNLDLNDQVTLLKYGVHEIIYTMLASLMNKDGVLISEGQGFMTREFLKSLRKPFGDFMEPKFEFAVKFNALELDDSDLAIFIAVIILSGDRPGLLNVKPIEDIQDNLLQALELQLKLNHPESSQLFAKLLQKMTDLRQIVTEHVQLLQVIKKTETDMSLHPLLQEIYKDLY
- Test: Binding affinity against peroxisome proliferator activated receptor gamma (PPAR-gamma)
Ki under 6 nM gets condition met, anything at or over 6 nM gets condition not met.

Some entries whose results are on file:
{"Compound": "CN(CCOc1ccc(CC(Nc2ccccc2C(=O)c2ccsc2)C(=O)O)cc1)c1nc2ccccc2o1 (stereo not given)", "Qualitative Label": "condition met"}
{"Compound": "Cc1oc(-c2ccccc2)nc1CCOc1ccc(CC(Nc2ccccc2C(=O)c2ccc(C(=O)O)cc2)C(=O)O)cc1 (stereo not given)", "Qualitative Label": "condition not met"}
{"Compound": "CN(CCOc1ccc(CC(Nc2ccccc2C(=O)C2CCCCCC2)C(=O)O)cc1)c1nc2ccccc2o1 (stereo not given)", "Qualitative Label": "condition not met"}
{"Compound": "CN(CCOc1ccc(CC(Nc2ccccc2C(=O)c2cccs2)C(=O)O)cc1)c1nc2ccccc2o1 (stereo not given)", "Qualitative Label": "condition met"}
{"Compound": "CCOC(=O)c1ccccc1NC(Cc1ccc(OCCc2nc(-c3ccccc3)oc2C)cc1)C(=O)O (stereo not given)", "Qualitative Label": "condition met"}

We now examine a further compound.
Is Ki strictly under 6 nM for the entry CN(CCOc1ccc(CC(Nc2ccccc2C(=O)c2ccccc2)C(=O)O)cc1)c1nc2ccccc2o1 (stereo not given) ?
condition met

* * *

- Target Or Test System: Peroxisome proliferator-activated receptor gamma (Homo sapiens, UniProt P37231)
- Test: Binding affinity against peroxisome proliferator activated receptor gamma (PPAR-gamma)
Observed Property: Ki (µM)
Report only the number, with the unit µM understood.

Determine its reported Ki: COc1ccc(C(=O)c2ccccc2NC(Cc2ccc(OCCN(C)c3nc4ccccc4o3)cc2)C(=O)O)cc1 (stereo not drawn)
0.00562

Give reported Ki value for CN(CCOc1ccc(CC(Nc2ccsc2C(=O)c2ccccc2)C(=O)O)cc1)c1nc2ccccc2o1 (stereo not drawn)
0.00977

Return reported Ki. Input molecule: Cc1oc(-c2ccccc2)nc1CCOc1ccc(CC(Nc2ccccc2C(=O)N(C)C)C(=O)O)cc1 (stereo not drawn)
0.251

Tell me Ki reported for Cc1ccc(NC(Cc2ccc(OCCN(C)c3nc4ccccc4o3)cc2)C(=O)O)c(C(=O)c2ccccc2)c1 (stereo not drawn)
0.0135

Using the record for Cc1oc(-c2ccccc2)nc1CCOc1ccc(C[C@@H](Nc2ccccc2C(=O)C2CCCCC2)C(=O)O)cc1 , state its measured Ki.
0.191

// fetch Ki given entry Cc1cccc(C(=O)c2ccccc2NC(Cc2ccc(OCCN(C)c3nc4ccccc4o3)cc2)C(=O)O)c1 (stereo not drawn)
0.00269

In one line, give reported Ki of the entry Cc1oc(-c2ccccc2)nc1CCOc1ccc(CC(Nc2ccccc2C(=O)c2cccc(C(=O)O)c2)C(=O)O)cc1 (stereo not drawn) .
0.813

Indicate its recorded Ki; the molecule in question is Cc1oc(-c2ccccc2)nc1CCOc1ccc(CC(Nc2ccccc2C(=O)c2ccc(CO)cc2)C(=O)O)cc1 (stereo not drawn)
0.00417

* * *

Each entry below carries its reported solubility.
- Test: Solubility in simulated gastric fluid.
- Type: physicochemical
- Applied Conditions: read-out: S

{"Compound": "COC(=O)c1ccccc1N[C@@H](Cc1ccc(OCCc2nc(-c3ccccc3)oc2C)cc1)C(=O)O [GW7845]", "Assay Value": "< 2 µg/mL"}
{"Compound": "Cc1oc(-c2ccccc2)nc1CCOc1ccc(C[C@H](Nc2ccccc2C(=O)c2ccccc2)C(=O)O)cc1 [FARGLITAZAR]", "Assay Value": "< 1 µg/mL"}
{"Compound": "Cc1oc(-c2ccccc2)nc1CCOc1ccc(CC(Nc2ccccc2C(=O)c2ccncc2)C(=O)O)cc1 (centres undefined)", "Assay Value": "87 µg/mL"}

With those in mind, consider the next compound.
Check the records and state solubility for Cc1oc(-c2ccccc2)nc1CCOc1ccc(CC(Nc2ccccc2C(=O)c2cccc(N)c2)C(=O)O)cc1 (centres undefined)
3 µg/mL

Taken from ChEMBL document CHEMBL1131297.
